Assay: NCI Yeast Anticancer Drug Screen. Data for the rad50 strain (AID 155);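 note: 0% = growth of vehicle-only cultures of the same strain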
Conditions: S. cerevisiae rad50 strain growth inhibition; at 50.0 µM; hits give high values
The panel holds about 79,000 compounds, 15% with a hit somewhere; the sample as a whole holds those more often.
metric.name: growth inhibition (%)
Supply the numeric figure in %, leaving out any unit text.

// known answers, use as guide
compound	metric.name	experimental.value
c1ccc(-c2cc(N3CCCCC3)c(-c3ccccc3)o2)cc1	growth inhibition	21.4
Cc1[nH]c2c(C)cccc2c1C1Cc2ccccc2N1 (centres undefined)	growth inhibition	98.4
O=C1OS(=O)(=O)c2cc3c(cc21)C1C(C2C3C3(Cl)C(Cl)=C(Cl)C2(Cl)C3(Cl)Cl)C2(Cl)C(Cl)=C(Cl)C1(Cl)C2(Cl)Cl (centres undefined)	growth inhibition	83.9
O=C(Nc1ccc(/C=C/c2ccc(NC(=O)c3cc(S(=O)(=O)O)c4cccnc4c3O)cc2S(=O)(=O)O)c(S(=O)(=O)O)c1)c1cc(S(=O)(=O)O)c2cccnc2c1O	growth inhibition	94.4
Cc1ccc(N2C(=O)C(Cl)=C(Cl)C2=O)cc1	growth inhibition	99.3
CS(=O)(=O)OCCN(CCOS(C)(=O)=O)c1ccc(C=Nc2ccc3oc(=O)ccc3c2)cc1	growth inhibition	52.1
CCCCCCCCCCCCOC(=O)C[n+]1cccc(C(=O)Nc2ccccc2)c1	growth inhibition	99.2
O=C1C=CC(=O)c2c(O)c(N3CCN(CCOCCO)CC3)c(Br)c(O)c21	growth inhibition	88.3

Sample NC(CSSCC(N)=NCCCCCSC12CC3CC(CC(C3)C1)C2)=NCCCCCSC12CC3CC(CC(C3)C1)C2 — what was its growth inhibition?
99.2

Origin of values: PubChem BioAssay (NCI)
